I'd be grateful if you could share measured Kpuu (unbound brain-to-plasma partition coefficient) for these entries.
- assay: Kpuu assay (in vivo brain-to-plasma unbound partition)
- conditions_used: brain (unbound) versus plasma (unbound); intravenous infusion 4 to 24 h; unbound brain/plasma ratio; read-out: Brain Kpu, u
Enter a number only.

Problem: Returns the measured Kpuu (unbound brain-to-plasma partition coefficient) for the input molecule. Input: CC(C)Oc1nc2nc(C34COC(C)(C3)C4)cn2cc1C(=O)Nc1cccn([C@H]2CC2(C)C)c1=O (single isomer, unassigned) [Example 79]
Result: 0.89

Problem: Returns the measured Kpuu (unbound brain-to-plasma partition coefficient) for the input molecule. Input: COC[C@@]12CC[C@@](c3cn4cc(C(=O)Nc5cccn([C@H]6C[C@H]6F)c5=O)c(OC(C)C)nc4n3)(CO1)C2 (single isomer, unassigned) [Example 132]
Result: 0.14

Problem: Returns the measured Kpuu (unbound brain-to-plasma partition coefficient) for the input molecule. Input: CC(C)Oc1cc2nc([C@]34CC[C@](C)(C3)OC4)cn2cc1C(=O)Nc1cccn([C@H]2C[C@@H]2F)c1=O (single isomer, unassigned) [Example 119]
Result: 0.73

====

- assay: Kpuu assay (in vivo brain-to-plasma unbound partition)
- conditions_used: brain (unbound) versus plasma (unbound); intravenous infusion 4 to 24 h; unbound brain/plasma ratio; read-out: Brain Kpu, u
Structures can show the parent of a compound that is named as a salt.
metric: Kpuu (unbound brain-to-plasma partition coefficient)
Enter a number only.

Problem: Returns the measured Kpuu (unbound brain-to-plasma partition coefficient) for the input molecule. Input: CC(C)Oc1cc2nc([C@]34CC[C@](C)(C3)OC4)cn2cc1C(=O)Nc1cccn([C@H]2C[C@H]2C)c1=O [Example 180, trifluoroacetate]
Result: 1.58

Problem: Returns the measured Kpuu (unbound brain-to-plasma partition coefficient) for the input molecule. Input: CC(C)Oc1nc2nc([C@@]34CC[C@@](C)(C3)OC4)cn2cc1C(=O)Nc1cccn(C2CC2)c1=O (single isomer, unassigned)
Result: 0.33

Problem: Returns the measured Kpuu (unbound brain-to-plasma partition coefficient) for the input molecule. Input: CC(C)Oc1cc2nc(C34CC(C#N)(C3)C4)cn2cc1C(=O)Nc1cccn(C2CC2)c1=O
Result: 0.9

Problem: Returns the measured Kpuu (unbound brain-to-plasma partition coefficient) for the input molecule. Input: CC[C@H](C)Oc1nc2nc([C@@]34CC[C@@](C)(C3)OC4)cn2cc1C(=O)Nc1cccn(C2CC2)c1=O
Result: 0.66

====

- experimental_system: MDR1 (Homo sapiens (Human), UniProt P08183)
- Sequence (P08183 whole entry): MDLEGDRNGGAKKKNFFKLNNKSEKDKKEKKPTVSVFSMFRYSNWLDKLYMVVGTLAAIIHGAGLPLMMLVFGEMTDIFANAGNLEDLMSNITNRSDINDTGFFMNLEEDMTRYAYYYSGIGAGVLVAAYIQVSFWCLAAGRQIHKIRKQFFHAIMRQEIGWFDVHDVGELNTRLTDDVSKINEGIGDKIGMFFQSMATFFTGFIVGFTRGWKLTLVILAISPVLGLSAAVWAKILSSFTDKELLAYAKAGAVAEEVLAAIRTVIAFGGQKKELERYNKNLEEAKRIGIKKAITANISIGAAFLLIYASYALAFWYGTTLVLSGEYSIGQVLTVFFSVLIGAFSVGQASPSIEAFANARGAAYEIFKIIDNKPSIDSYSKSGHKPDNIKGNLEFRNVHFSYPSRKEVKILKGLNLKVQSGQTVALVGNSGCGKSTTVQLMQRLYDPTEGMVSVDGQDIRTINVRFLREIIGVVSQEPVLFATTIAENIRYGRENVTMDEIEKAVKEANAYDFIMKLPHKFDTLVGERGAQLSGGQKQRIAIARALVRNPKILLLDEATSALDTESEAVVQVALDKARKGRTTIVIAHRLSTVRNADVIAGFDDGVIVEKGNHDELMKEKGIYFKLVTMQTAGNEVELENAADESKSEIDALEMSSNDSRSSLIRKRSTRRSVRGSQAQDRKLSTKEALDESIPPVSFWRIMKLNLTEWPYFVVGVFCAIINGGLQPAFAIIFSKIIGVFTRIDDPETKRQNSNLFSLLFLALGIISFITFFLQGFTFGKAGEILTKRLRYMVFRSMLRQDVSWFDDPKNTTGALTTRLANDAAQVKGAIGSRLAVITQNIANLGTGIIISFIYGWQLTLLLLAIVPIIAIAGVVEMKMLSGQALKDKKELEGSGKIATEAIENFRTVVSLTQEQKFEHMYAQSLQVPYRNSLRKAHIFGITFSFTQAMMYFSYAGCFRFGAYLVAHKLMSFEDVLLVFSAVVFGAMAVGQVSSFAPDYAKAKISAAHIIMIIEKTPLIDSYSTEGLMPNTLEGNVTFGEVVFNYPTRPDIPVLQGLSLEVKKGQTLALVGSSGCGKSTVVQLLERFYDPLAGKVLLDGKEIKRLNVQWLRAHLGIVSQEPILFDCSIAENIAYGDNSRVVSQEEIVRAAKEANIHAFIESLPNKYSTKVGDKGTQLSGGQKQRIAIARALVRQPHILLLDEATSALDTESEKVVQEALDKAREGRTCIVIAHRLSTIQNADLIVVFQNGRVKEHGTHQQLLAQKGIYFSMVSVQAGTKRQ
- assay: in vitro
- conditions_used: MDCK-MDR1
I'd be grateful if you could share measured efflux ratio at 120 min, 1 μM for these entries.

Problem: Returns the measured efflux ratio at 120 min, 1 μM for the input compound. Input: CC12CC(c3cn4cc(C(=O)Nc5cccn([C@@H]6C[C@@H]6F)c5=O)c(OC5CCC5)cc4n3)(CO1)C2 (racemic) [Example 85]
Result: 7.7

Problem: Returns the measured efflux ratio at 120 min, 1 μM for the input compound. Input: CC(C)Oc1nc2nc(C[C@@H]3CCOC3)cn2cc1C(=O)Nc1cccn(C2CC2)c1=O (single isomer, unassigned) [Example 109]
Result: 7.1

Problem: Returns the measured efflux ratio at 120 min, 1 μM for the input compound. Input: Cc1cnc2c(NC(=O)c3cn4cc(C56CCC(C)(CC5)OC6)nc4nc3OC(C)C)cnn2c1 [Comparator 6B, reference compound]
Result: 1.5

Problem: Returns the measured efflux ratio at 120 min, 1 μM for the input compound. Input: CC(C)Oc1nc2nc([C@H]3CCCOC3)cn2cc1C(=O)Nc1cccn(C2CC2)c1=O (single isomer, unassigned) [Example 107]
Result: 3

Problem: Returns the measured efflux ratio at 120 min, 1 μM for the input compound. Input: CC[C@H](C)Oc1nc2nc(C34COC(C)(C3)C4)cn2cc1C(=O)Nc1cccn([C@@H]2C[C@@H]2F)c1=O (single isomer, unassigned) [Example 59]
Result: 9.4

Problem: Returns the measured efflux ratio at 120 min, 1 μM for the input compound. Input: Cc1cnc2c(NC(=O)c3cn4cc([C@@]56CC[C@@](C)(C5)OC6)nc4nc3OC(C)C)cnn2c1 (single isomer, unassigned) [Comparator 4B, reference compound]
Result: 2.3

Problem: Returns the measured efflux ratio at 120 min, 1 μM for the input compound. Input: CC12CC(c3cn4cc(C(=O)Nc5cccn(C6C[C@@H]6F)c5=O)c(OC5CCC5)nc4n3)(CO1)C2 (mixture of isomers) [Example 103]
Result: 12.8

Problem: Returns the measured efflux ratio at 120 min, 1 μM for the input compound. Input: CC12CC(c3cn4cc(C(=O)Nc5cccn(C6CC6)c5=O)c(OC5CC5)cc4n3)(CO1)C2 [Example 104]
Result: 4.3

Problem: Returns the measured efflux ratio at 120 min, 1 μM for the input compound. Input: C[C@@H](Oc1cc2nc(C34COC(C)(C3)C4)cn2cc1C(=O)Nc1cccn(C2C[C@H]2F)c1=O)C(F)F (stereo partly drawn) [Example 185]
Result: 21.8

Problem: Returns the measured efflux ratio at 120 min, 1 μM for the input compound. Input: CC[C@H](C)Oc1nc2nc(C34COC(C)(C3)C4)cn2cc1C(=O)Nc1cccn([C@H]2C[C@H]2F)c1=O (single isomer, unassigned) [Example 60]
Result: 9

Problem: Returns the measured efflux ratio at 120 min, 1 μM for the input compound. Input: CC(C)Oc1c(C(=O)Nc2cccn([C@@H]3C[C@H]3C)c2=O)cn2cc(C34COC(C)(C3)C4)nc2c1F [Example 147]
Result: 1.5

Problem: Returns the measured efflux ratio at 120 min, 1 μM for the input compound. Input: CC(C)Oc1nc2nc([C@@]34CC[C@@](C)(C3)OC4)cn2cc1C(=O)Nc1cccn([C@@H]2CC23CC3)c1=O (single isomer, unassigned) [Example 151]
Result: 1.2
